test system: RAW 264.7 cells; experiment: Cytotoxicity against RAW 264.7 cells (CCK-8 method); settings: investigated compounds, 24 h, CCK-8
Measure name: Cytotoxicity TC50

Lab book: Cytotoxicity TC50 of CC(C)C1=CC(=O)C2=C(CC[C@H]3[C@@](C)(CO)C(=O)CC[C@]23C)C1=O noted as 110 nM

----------
test system: RAW 264.7 cells; assay: Cytotoxicity against RAW 264.7 cells (CCK-8 method); details: investigated compounds, 24 h, CCK-8
Measure name: Cytotoxicity TC50

Lab book: Cytotoxicity TC50 of CC(C)[C@]12O[C@H]1[C@@H]1O[C@]13[C@]1(O[C@H]1C[C@H]1C4=C(CC[C@@]13C)C(=O)OC4)[C@@H]2O [triptolide] noted as 71 nM

Lab book: Cytotoxicity TC50 of C[C@@]1(C(=O)O)CC[C@]2(C)CC[C@]3(C)C4=CC(=O)c5c(cc(O)c(O)c5C=O)[C@]4(C)CC[C@@]3(C)[C@@H]2C1 noted as 27590 nM

Lab book: Cytotoxicity TC50 of CC1=C(O)C(=O)C=C2C1=CC=C1[C@@]2(C)CC[C@@]2(C)[C@@H]3C[C@](C)(C(=O)O)CC[C@]3(C)CC[C@]12C noted as 1720 nM

----------
test system: NO production in LPS-induced RAW 264.7 cells; experiment: Inhibitory effect on NO production in LPS-induced RAW 264.7 cells (Griess reagent); format: cell-based; settings: Mus musculus, RAW264.7; investigated compounds; LPS (1 µg/mL)-induced RAW 264.7 cells, 24 h
Give IC50 for every item shown.
Output spec: scalar in µM, unitless text.

Lab book: IC50 of CC1=C(O)C(=O)C=C2C1=CC=C1[C@@]2(C)CC[C@@]2(C)[C@@H]3C[C@](C)(C(=O)O)CC[C@]3(C)CC[C@]12C noted as 0.56

Lab book: IC50 of CC(C)C1=CC(=O)C2=C(CC[C@H]3[C@@](C)(CO)C(=O)CC[C@]23C)C1=O noted as 35.6

Lab book: IC50 of C[C@@]1(C(=O)O)CC[C@]2(C)CC[C@]3(C)C4=CC(=O)c5c(cc(O)c(O)c5C=O)[C@]4(C)CC[C@@]3(C)[C@@H]2C1 noted as 3.48

Lab book: IC50 of CC(C)[C@]12O[C@H]1[C@@H]1O[C@]13[C@]1(O[C@H]1C[C@H]1C4=C(CC[C@@]13C)C(=O)OC4)[C@@H]2O [triptolide] noted as 0.066

Lab book: IC50 of CC(C)c1ccc2c(c1O)CC[C@H]1C3=C(CC[C@]21C)C(=O)OC3 [triptophenolide] noted as 43.1

----------
tested on: RAW 264.7 cells; experiment: Cytotoxicity against RAW 264.7 cells (CCK-8 method); details: investigated compounds
Measure name: Therapeutic Index (TI, = TC50/IC50)
Could you keep your reply to the number by itself?

Lab book: Therapeutic Index (TI, = TC50/IC50) of CC1=C(O)C(=O)C=C2C1=CC=C1[C@@]2(C)CC[C@@]2(C)[C@@H]3C[C@](C)(C(=O)O)CC[C@]3(C)CC[C@]12C [celastrol] noted as 3.07

Lab book: Therapeutic Index (TI, = TC50/IC50) of CC(C)[C@]12O[C@H]1[C@@H]1O[C@]13[C@]1(O[C@H]1C[C@H]1C4=C(CC[C@@]13C)C(=O)OC4)[C@@H]2O [triptolide] noted as 1.08

Lab book: Therapeutic Index (TI, = TC50/IC50) of CC(C)C1=CC(=O)C2=C(CC[C@H]3[C@@](C)(CO)C(=O)CC[C@]23C)C1=O [triptoquinone B] noted as 0.0031

Lab book: Therapeutic Index (TI, = TC50/IC50) of C[C@@]1(C(=O)O)CC[C@]2(C)CC[C@]3(C)C4=CC(=O)c5c(cc(O)c(O)c5C=O)[C@]4(C)CC[C@@]3(C)[C@@H]2C1 [demethylzeylasteral] noted as 7.93
